The reported measurements were obtained from patent US12053459B2.

- targetEntity: CDK2/Cyclin E1(14-475) (Homo sapiens, UniProt P24941)
- assayNotes: Caliper LabChip EZ Reader mobility shift assay, inhibition of CDK2/Cyclin E1 activity
- Type: biochemical
- testConditions: class symbols A-D
Recorded measurements of IC50, one per entry
reportedProperty: IC50

1) CNC(=O)[C@H](CCCc1ccccc1)NC(=O)C1CN(C(=O)Cc2c[nH]c3cc(Cl)ccc23)CC2CN(C(=O)c3cc(-c4ccccc4)[nH]n3)CC21 (some centres unmarked) [I-19]
> 10 µM
2) CNC(=O)[C@H](CCCc1ccccc1)NC(=O)C1CN(C(=O)Cc2c[nH]c3cc(Cl)ccc23)CC2CN(C(=O)c3ccc4c(c3)CC(=O)N4)CC21 (single isomer, unassigned) [I-22]
> 10 µM
3) CNC(=O)[C@@H](NC(=O)C1CN(C(=O)Cc2c[nH]c3cc(Cl)ccc23)CC2CN(C(=O)c3ccc(OC(C)C)c(OC)c3)CC21)[C@H](C)OCc1ccccc1 (single isomer, unassigned) [I-146]
≤ 0.5 µM
4) CNC(=O)[C@H](CCCc1ccc(F)cc1)NC(=O)C1CN(C(=O)Cc2c[nH]c3cc(Cl)ccc23)CC2CN(C(=O)c3ccc(OC(C)C)c(OC)c3)CC21 (some centres unmarked) [I-144]
0.5 to 5 µM
5) CNC(=O)[C@@H](NC(=O)C1CN(C(=O)Cc2c[nH]c3cc(Cl)ccc23)CC2CN(C(=O)c3ccc(OC(C)C)c(OC)c3)CC21)[C@H](C)OCc1ccccc1 (some centres unmarked) [I-106]
≤ 0.5 µM

* * *

We begin with a simple list: items and their reported IC50.
- targetEntity: CDK2/Cyclin E1(14-475) (Homo sapiens)
- assayNotes: HotSpot kinase inhibition assay (radiometric, Reaction Biology Corporation)
- Type: biochemical
- testConditions: 10 μM ATP, class symbols A-D
reportedProperty: IC50

1) CNC(=O)[C@@H](NC(=O)C1CN(C(=O)Cc2c[nH]c3cc(Cl)ccc23)CC2CN(C(=O)c3cc(-c4ccccc4)n[nH]3)CC21)[C@@H](C)OCC1CCCCC1 (stereo partly drawn) [I-251]
> 100 µM
2) CNC(=O)[C@H](CCCc1ccccc1)NC(=O)C1CN(C(=O)Cc2c[nH]c3cc(Cl)ccc23)CC2CN(C(=O)c3ccc4[nH]nnc4c3)CC21 (stereo partly drawn) [I-62]
> 100 µM
3) CNC(=O)[C@H](CCCc1ccccc1)NC(=O)C1CN(C(=O)Cc2c[nH]c3cc(Cl)ccc23)CC2CN(C(=O)c3cnc4nccn4c3)CC21 (stereo partly drawn) [I-64]
10 to 100 µM
4) CNC(=O)[C@H](CCCc1ccccc1)NC(=O)C1CN(C(=O)Cc2c[nH]c3cc(Cl)ccc23)CC2CN(C(=O)c3ccccc3)CC21 (stereo partly drawn) [I-50]
1 to 10 µM
5) CNC(=O)[C@H](CCCc1ccccc1)NC(=O)C1CN(C(=O)Cc2c[nH]c3cc(OC)ccc23)CC2CN(C(=O)c3ccc(OC(C)C)c(OC)c3)CC21 (stereo partly drawn) [I-235]
1 to 10 µM
6) CNC(=O)[C@H](CCCc1ccccc1)NC(=O)C1CN(C(=O)Cc2c[nH]c3cccc(Cl)c23)CC2CN(C(=O)c3ccc(OC(C)C)c(OC)c3)CC21 (stereo partly drawn) [I-221]
> 100 µM

* * *

- targetEntity: CDK2/Cyclin E1(14-475) (Homo sapiens, UniProt P24941)
- assayNotes: Caliper LabChip EZ Reader mobility shift assay, inhibition of CDK2/Cyclin E1 activity
- Format: biochemical
- testConditions: class symbols A-D
reportedProperty: IC50

1. CNC(=O)[C@H](CCCc1ccccc1)NC(=O)C1CN(C(=O)Cc2c[nH]c3ccc(Cl)cc23)CC2CN(C(=O)c3ccc(OC(C)C)c(OC)c3)CC21 (stereo partly drawn) [I-220]
> 10 µM
2. COc1cc(C(=O)N2CC3CN(C(=O)Cc4c[nH]c5cc(Cl)ccc45)CC(C(=O)NC(CCCc4ccccc4)c4ncco4)C3C2)ccc1OC(C)C (stereo not drawn) [I-149]
0.5 to 5 µM
3. CNC(=O)[C@@H](NC(=O)C1CN(C(=O)Cc2c[nH]c3cc(Cl)ccc23)CC2CN(C(=O)c3ccc(OC4CC4)cc3)CC21)[C@@H](C)OCC1CCCCC1 (stereo partly drawn) [I-242]
0.5 to 5 µM
4. CNC(=O)[C@H](CCCc1ccccc1)NC(=O)C1CN(C(=O)Cc2c[nH]c3cc(Cl)ccc23)CC2CN(C(=O)c3cc(-c4ccccc4)nn3C)CC21 (stereo partly drawn) [I-26]
5 to 10 µM
5. CNC(=O)[C@H](CCCc1ccccc1)NC(=O)C1CN(C(=O)Cc2c[nH]c3cccc(OC)c23)CC2CN(C(=O)c3ccc(OC(C)C)c(OC)c3)CC21 (stereo partly drawn) [I-176]
> 10 µM
6. CNC(=O)[C@H](CCCc1ccccc1)NC(=O)C1CN(C(=O)C2(C)CCOCC2)CC2CN(C(=O)c3ccc(OC(C)C)c(OC)c3)CC21 (stereo partly drawn) [I-169]
> 10 µM
7. CNC(=O)[C@H](Cc1c[nH]c2ccccc12)NC(=O)C1CN(C(=O)Cc2c[nH]c3cc(Cl)ccc23)CC2CN(C(=O)c3ccc(OC(C)C)c(OC)c3)CC21 (single isomer, unassigned) [I-110]
> 10 µM
8. CNC(=O)[C@H](CCCc1ccccc1)NC(=O)C1CN(C(=O)c2cn3ccncc3n2)CC2CN(C(=O)c3ccc(OC(C)C)c(OC)c3)CC21 (single isomer, unassigned) [I-195]
> 10 µM
9. CNC(=O)[C@H](CCCc1ccccc1)NC(=O)C1CN(C(=O)Cc2c[nH]c3cc(OC)ccc23)CC2CN(C(=O)c3ccc(Cl)c(Cl)c3)CC21 (stereo partly drawn) [I-247]
> 10 µM
10. CNC(=O)[C@H](CCCc1ccccc1)NC(=O)C1CN(C(=O)Cc2c[nH]c3cc(Cl)ccc23)CC2CN(C(=O)c3cnn(C)c3)CC21 (stereo partly drawn) [I-55]
> 10 µM
11. CNC(=O)[C@H](CCCc1ccccc1)NC(=O)C1CN(C(=O)Cc2c[nH]c3cc(Cl)ccc23)CC2CN(C(=O)c3c4ccccc4nn3C)CC21 (stereo partly drawn) [I-48]
> 10 µM
12. CNC(=O)[C@H](CCCC1CCOCC1)NC(=O)C1CN(C(=O)Cc2c[nH]c3cc(Cl)ccc23)CC2CN(C(=O)c3ccc(OC(C)C)c(OC)c3)CC21 (stereo partly drawn) [I-130]
0.5 to 5 µM

* * *

- targetEntity: CDK2/Cyclin E1(14-475) (Homo sapiens)
- assayNotes: Caliper LabChip EZ Reader mobility shift assay, inhibition of CDK2/Cyclin E1 activity
- Type: biochemical
- testConditions: class symbols A-D
reportedProperty: IC50

1) CNC(=O)[C@H](CCCc1ccccc1)NC(=O)C1CN(C(=O)Cc2c[nH]c3cc(OC)ccc23)CC2CN(C(=O)c3ccc(C(F)(F)F)c(Cl)c3)CC21 (some centres unmarked)
> 10 µM
2) CNC(=O)[C@H](CCCc1ccccc1)NC(=O)C1CN(C(=O)c2cn(C)c3ccccc23)CC2CN(C(=O)c3ccc(OC(C)C)c(OC)c3)CC21 (some centres unmarked)
> 10 µM
3) CNC(=O)[C@@H](NC(=O)C1CN(C(=O)Cc2c[nH]c3cc(Cl)ccc23)CC2CN(C(=O)c3ccc(OC(C)C)c(OC)c3)CC21)[C@H](C)OCc1ccccc1 (single isomer, unassigned) [I-148]
0.5 to 5 µM
4) CNC(=O)[C@H](CCCc1ccccc1)NC(=O)C1CN(C(=O)Cc2n[nH]c3cc(Cl)ccc23)CC2CN(C(=O)c3ccc(OC(C)C)c(OC)c3)CC21 (some centres unmarked)
0.5 to 5 µM
5) CNC(=O)[C@H](CCCc1ccccc1)NC(=O)C1CN(C(=O)c2cccc(CO)n2)CC2CN(C(=O)c3ccc(OC(C)C)c(OC)c3)CC21 (some centres unmarked)
> 10 µM
6) CNC(=O)[C@H](CCCc1ccccc1)NC(=O)C1CN(C(=O)c2ccc(C)[nH]2)CC2CN(C(=O)c3ccc(OC(C)C)c(OC)c3)CC21 (some centres unmarked)
> 10 µM
7) CNC(=O)[C@H](CCCc1ccccc1)NC(=O)C1CN(C(=O)C(C)c2c[nH]c3cc(Cl)ccc23)CC2CN(C(=O)c3ccc(OC(C)C)c(OC)c3)CC21 (some centres unmarked)
0.5 to 5 µM
8) CNC(=O)[C@@H](CCCC1CCCCC1)NC(=O)C1CN(C(=O)Cc2c[nH]c3cc(Cl)ccc23)CC2CN(C(=O)c3ccc(OC(C)C)c(OC)c3)CC21 (some centres unmarked)
5 to 10 µM
9) COc1cc(C(=O)N2CC3CN(C(=O)Cc4c[nH]c5cc(Cl)ccc45)CC(C(=O)N[C@@H](C)C(=O)NCCCc4ccccc4)C3C2)ccc1OC(C)C (some centres unmarked)
0.5 to 5 µM
10) CNC(=O)[C@H](CCCc1ccccc1)NC(=O)C1CN(C(=O)c2cc3ccccc3cn2)CC2CN(C(=O)c3ccc(OC(C)C)c(OC)c3)CC21 (some centres unmarked)
> 10 µM
11) CNC(=O)[C@H](CCCc1ccccc1)NC(=O)C1CN(C(=O)c2c[nH]c3cc(C)ccc23)CC2CN(C(=O)c3ccc(OC(C)C)c(OC)c3)CC21 (some centres unmarked)
> 10 µM
12) CNC(=O)[C@H](CCCc1ccccc1)NC(=O)C1CN(C(=O)Cc2c[nH]c3ccc(Br)cc23)CC2CN(C(=O)c3ccc(OC(C)C)c(OC)c3)CC21 (some centres unmarked)
≤ 0.5 µM
13) C[C@H](OCc1ccc(F)cc1)[C@@H](NC(=O)C1CN(C(=O)Cc2c[nH]c3cc(Cl)ccc23)CC2CN(C(=O)c3ccc(OC4CC4)cc3)CC21)C(N)=O (some centres unmarked)
> 10 µM
14) CNC(=O)[C@H](CCCc1ccccc1)NC(=O)C1CN(C(=O)Cc2c[nH]c3cc(Cl)ccc23)CC2CN(C(=O)c3ccc(OC)c(O)c3)CC21 (some centres unmarked)
5 to 10 µM
15) CNC(=O)[C@H](CCCc1ccccc1)NC(=O)C1CN(C(=O)c2cnc3ccccc3c2)CC2CN(C(=O)c3ccc(OC(C)C)c(OC)c3)CC21 (some centres unmarked)
> 10 µM
16) CNC(=O)[C@H](CCCc1ccccc1)NC(=O)C1CN(C(=O)Cc2c[nH]c3cc(Cl)ccc23)CC2CN(C(=O)c3ccc4c(c3)CC(=O)N4)CC21 (single isomer, unassigned) [I-23]
> 10 µM
17) CNC(=O)[C@H](CCCc1ccccc1)NC(=O)C1CN(C(=O)Cc2c[nH]c3cc(Cl)ccc23)CC2CN(C(=O)c3cc4c(c(OC)c3)OC(C)(C)C4)CC21 (some centres unmarked)
≤ 0.5 µM
18) CNC(=O)[C@H](CCCc1ccccc1)NC(=O)C1CN(C(=O)Cc2ccncc2)CC2CN(C(=O)c3ccc(OC(C)C)c(OC)c3)CC21 (some centres unmarked)
> 10 µM
19) CNC(=O)[C@H](CCCc1ccccc1)NC(=O)C1CN(CCc2c[nH]c3cc(Cl)ccc23)CC2CN(C(=O)c3ccc(OC(C)C)c(OC)c3)CC21 (some centres unmarked)
> 10 µM
20) CNC(=O)[C@H](CCCc1ccccc1)NC(=O)C1CN(C(=O)c2ccc3cccn3c2)CC2CN(C(=O)c3ccc(OC(C)C)c(OC)c3)CC21 (some centres unmarked)
> 10 µM
21) CNC(=O)[C@H](CCCc1cccnc1)NC(=O)C1CN(C(=O)Cc2c[nH]c3cc(Cl)ccc23)CC2CN(C(=O)c3ccc(OC(C)C)c(OC)c3)CC21 (some centres unmarked)
0.5 to 5 µM
22) CNC(=O)[C@H](NC(=O)C1CN(C(=O)Cc2c[nH]c3cc(Cl)ccc23)CC2CN(C(=O)c3ccc(OC(C)C)c(OC)c3)CC21)[C@H](C)OCc1ccccc1 (some centres unmarked)
> 10 µM
23) CNC(=O)C(NC(=O)C1CN(C(=O)Cc2c[nH]c3cc(Cl)ccc23)CC2CN(C(=O)c3ccc(OC(C)C)c(OC)c3)CC21)[C@H](C)OCc1ccccc1 (single isomer, unassigned)
≤ 0.5 µM
